Target: JAK2 (Homo sapiens)
Sequence (O60674 whole entry, species assumed): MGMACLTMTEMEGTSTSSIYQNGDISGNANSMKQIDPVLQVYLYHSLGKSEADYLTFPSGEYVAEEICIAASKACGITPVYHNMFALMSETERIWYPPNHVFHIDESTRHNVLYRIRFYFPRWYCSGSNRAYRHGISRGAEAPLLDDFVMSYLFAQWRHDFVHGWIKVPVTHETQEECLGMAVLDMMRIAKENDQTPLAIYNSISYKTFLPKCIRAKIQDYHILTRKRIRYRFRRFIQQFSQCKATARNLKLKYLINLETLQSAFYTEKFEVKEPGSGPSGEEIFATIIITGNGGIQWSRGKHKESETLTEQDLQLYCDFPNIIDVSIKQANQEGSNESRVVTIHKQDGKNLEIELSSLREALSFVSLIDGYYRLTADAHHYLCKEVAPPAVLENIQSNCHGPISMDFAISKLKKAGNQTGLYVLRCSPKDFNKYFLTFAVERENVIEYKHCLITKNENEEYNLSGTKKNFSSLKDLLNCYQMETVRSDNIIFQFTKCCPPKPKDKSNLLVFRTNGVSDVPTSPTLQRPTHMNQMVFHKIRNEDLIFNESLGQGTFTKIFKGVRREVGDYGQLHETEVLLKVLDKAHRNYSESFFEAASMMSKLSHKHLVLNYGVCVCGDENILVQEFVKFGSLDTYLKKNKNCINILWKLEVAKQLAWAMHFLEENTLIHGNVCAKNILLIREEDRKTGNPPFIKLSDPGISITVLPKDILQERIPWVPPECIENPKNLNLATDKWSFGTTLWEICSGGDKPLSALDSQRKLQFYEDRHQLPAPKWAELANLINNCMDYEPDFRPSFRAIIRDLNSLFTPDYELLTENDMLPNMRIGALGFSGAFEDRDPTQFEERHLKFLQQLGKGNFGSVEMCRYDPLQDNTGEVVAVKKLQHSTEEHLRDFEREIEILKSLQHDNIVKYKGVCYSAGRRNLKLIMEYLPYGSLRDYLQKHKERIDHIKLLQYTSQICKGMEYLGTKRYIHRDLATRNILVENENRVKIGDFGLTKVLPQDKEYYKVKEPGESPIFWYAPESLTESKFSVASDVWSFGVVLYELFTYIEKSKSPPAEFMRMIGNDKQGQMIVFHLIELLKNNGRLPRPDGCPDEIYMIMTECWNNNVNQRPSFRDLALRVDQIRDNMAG
Assay: JAK2 inhibition assay (radioactive enzyme assay, as for JAK3)
Type: biochemical
Conditions: average Ki if more than one value determined
Measured Ki, listed per entry.

API: value(readout= Ki, system= JAK2 (Homo sapiens), query= CC(=O)N1[C@H](C)CN(c2cccc(-c3c[nH]c4ncc(OCCN(C)C)cc34)n2)C[C@@H]1C ) 500 to 5000 nM

What about COC(=O)c1ccc(NCc2ccccc2)nc1-c1c[nH]c2ncc(Cl)cc12 ? < 500 nM

What about Cc1cc(-c2c[nH]c3ncc(Cl)cc23)nc2ccccc12 ? 500 to 5000 nM

What about c1ccc(CNc2nccc(-c3c[nH]c4ncc(-c5cccnc5)cc34)n2)cc1 ? < 500 nM

Now consider the entry below.
API: value(readout= Ki, system= JAK2 (Homo sapiens), query= CC(=O)N1CCCN(c2cccc(-c3c[nH]c4ncc(F)cc34)n2)CC1 ) < 500 nM

====

Biological target: full length Aurora-A (AA 1-403) (Homo sapiens)
Sequence (O14965 1-403): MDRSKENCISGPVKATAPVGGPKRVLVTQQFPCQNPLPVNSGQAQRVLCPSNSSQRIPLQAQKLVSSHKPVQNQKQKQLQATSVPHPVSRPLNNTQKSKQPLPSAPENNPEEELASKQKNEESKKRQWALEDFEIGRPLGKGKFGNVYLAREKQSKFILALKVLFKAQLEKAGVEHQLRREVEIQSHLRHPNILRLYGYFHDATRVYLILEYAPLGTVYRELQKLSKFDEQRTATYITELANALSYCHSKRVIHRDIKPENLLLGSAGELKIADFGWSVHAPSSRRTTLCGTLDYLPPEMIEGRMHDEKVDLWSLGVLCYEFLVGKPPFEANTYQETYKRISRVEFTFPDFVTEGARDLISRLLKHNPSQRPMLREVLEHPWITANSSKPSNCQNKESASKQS
Measured Ki, listed per entry.

What value of Ki has been reported for the following compound? C[C@H](Nc1nc(-c2c[nH]c3ncc(Cl)cc23)ncc1F)C(=O)N(C)C < 500 nM

What about Fc1cnc(-c2c[nH]c3ncc(Cl)cc23)nc1NCc1ccncc1 ? < 500 nM

What about COCC(=O)Nc1cnc2[nH]cc(-c3cccc(N4C[C@@H](C)N(C(C)=O)[C@@H](C)C4)n3)c2c1 ? 500 to 5000 nM

What about C[C@H](Nc1nc(-c2c[nH]c3ncc(Cl)cc23)ncc1F)C(=O)NCCN(C)C(=O)OC(C)(C)C ? 500 to 5000 nM

What about CNc1cnc2[nH]cc(-c3cccc(N4C[C@@H](C)N(C(C)=O)[C@@H](C)C4)n3)c2c1 ? 500 to 5000 nM

What about C[C@H](Nc1nc(-c2c[nH]c3ncc(Cl)cc23)ncc1F)c1cccc(OC(=O)NO)c1 ? < 500 nM

What about CC(=O)N1[C@H](C)CN(c2ccc(N)c(-c3c[nH]c4ncc(Cl)cc34)n2)C[C@@H]1C ? < 500 nM

What about Cc1ccc(CNc2cccc(-c3c[nH]c4ncc(Cl)cc34)n2)cc1 ? < 500 nM

Further cases:
What value of Ki has been reported for the following compound? COCC#Cc1cnc2[nH]cc(-c3ncc(F)c(N[C@@H](C)c4ccc(F)cc4)n3)c2c1 < 500 nM

What about Fc1cnc(-c2c[nH]c3ncc(Cl)cc23)nc1NC[C@H]1CCNC1 ? < 500 nM

What about C[C@H](Nc1nc(-c2c[nH]c3ncc(Cl)cc23)ncc1F)C(=O)NCCCN1CCCC1 ? < 500 nM

====

Target: JAK3 (Homo sapiens, UniProt P52333)
Sequence (P52333 1-1124): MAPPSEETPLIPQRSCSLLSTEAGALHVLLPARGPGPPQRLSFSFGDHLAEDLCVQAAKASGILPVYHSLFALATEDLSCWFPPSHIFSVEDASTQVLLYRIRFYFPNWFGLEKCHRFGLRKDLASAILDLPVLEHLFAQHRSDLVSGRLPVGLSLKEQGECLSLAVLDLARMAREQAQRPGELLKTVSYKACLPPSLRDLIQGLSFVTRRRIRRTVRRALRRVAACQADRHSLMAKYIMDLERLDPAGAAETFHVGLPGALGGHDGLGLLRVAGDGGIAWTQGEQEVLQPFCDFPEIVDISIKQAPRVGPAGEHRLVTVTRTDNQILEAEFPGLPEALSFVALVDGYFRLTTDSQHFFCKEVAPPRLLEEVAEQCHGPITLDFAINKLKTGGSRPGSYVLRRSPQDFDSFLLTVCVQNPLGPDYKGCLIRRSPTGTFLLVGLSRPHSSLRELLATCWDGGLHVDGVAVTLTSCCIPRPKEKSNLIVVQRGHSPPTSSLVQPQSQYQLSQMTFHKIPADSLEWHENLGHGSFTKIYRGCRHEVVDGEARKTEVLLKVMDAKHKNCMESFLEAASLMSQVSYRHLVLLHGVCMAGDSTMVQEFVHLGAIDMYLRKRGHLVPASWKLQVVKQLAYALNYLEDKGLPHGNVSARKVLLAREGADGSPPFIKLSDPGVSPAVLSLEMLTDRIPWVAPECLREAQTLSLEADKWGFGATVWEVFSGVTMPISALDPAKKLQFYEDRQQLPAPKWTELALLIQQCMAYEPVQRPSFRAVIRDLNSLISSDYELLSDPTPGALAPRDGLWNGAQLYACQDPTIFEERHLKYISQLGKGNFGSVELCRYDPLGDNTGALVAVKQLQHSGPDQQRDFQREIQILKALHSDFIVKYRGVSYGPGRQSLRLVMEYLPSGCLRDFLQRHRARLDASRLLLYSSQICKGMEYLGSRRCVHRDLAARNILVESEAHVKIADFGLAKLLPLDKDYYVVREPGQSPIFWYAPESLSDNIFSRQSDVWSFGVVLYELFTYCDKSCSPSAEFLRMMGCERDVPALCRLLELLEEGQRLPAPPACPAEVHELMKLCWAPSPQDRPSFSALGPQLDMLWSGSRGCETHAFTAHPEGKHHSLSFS
Experiment: JAK3 inhibition assay (standard radioactive enzyme assay)
Format: biochemical
Conditions: average Ki if more than one value determined
Measured Ki, listed per entry.

Sample records with Ki:
API: value(readout= Ki, system= JAK3 (Homo sapiens, UniProt P52333), query= CCOc1cnc2[nH]cc(-c3cccc(N4C[C@@H](C)N(C(C)=O)[C@@H](C)C4)n3)c2c1 ) < 500 nM

What about CC(=O)N1CCCN(c2cccc(-c3c[nH]c4ncc(C(=O)O)cc34)n2)CC1 ? 500 to 5000 nM

What about CC(=O)N1[C@H](C)CN(c2cccc(-c3c[nH]c4ncc(OC(C)C)cc34)n2)C[C@@H]1C ? < 500 nM

What about N#Cc1ccc(-c2c[nH]c3ncc(Cl)cc23)cc1 ? < 500 nM

What about C[C@@H](Nc1cccc(-c2c[nH]c3ncc(Cl)cc23)n1)C1CCCCC1 ? < 500 nM

Further cases:
API: value(readout= Ki, system= JAK3 (Homo sapiens, UniProt P52333), query= O=C(O)c1ccc(-c2c[nH]c3ncc(Cl)cc23)c(F)c1 ) 500 to 5000 nM

What about O[C@H]1CCCC[C@@H]1Nc1cccc(-c2c[nH]c3ncc(Cl)cc23)n1 ? < 500 nM

What about CCC(=O)N1CCN(c2cccc(-c3c[nH]c4ncc(Cl)cc34)n2)CC1 ? < 500 nM

What about Cc1cc(C(F)(F)F)cc(-c2c[nH]c3ncc(Cl)cc23)n1 ? 500 to 5000 nM

What about C[C@@H](Nc1cccc(-c2c[nH]c3ncc(Cl)cc23)n1)c1ccc(F)cc1 ? < 500 nM

What about CC(=O)N1[C@H](C)CN(c2cccc(-c3c[nH]c4ncc(NC(=O)c5cccc(C#N)c5)cc34)n2)C[C@@H]1C ? < 500 nM

What about OC[C@@H](Nc1cccc(-c2c[nH]c3ncc(Cl)cc23)n1)c1ccccc1 ? < 500 nM

What about CC(=O)N1[C@H](C)CN(c2nc(-c3c[nH]c4ncc(Cl)cc34)c(F)cc2C#N)C[C@@H]1C ? < 500 nM

What about CC(=O)N1[C@H](C)CN(c2cccc(-c3c[nH]c4ncc(C(=O)N5CCCCCC5)cc34)n2)C[C@@H]1C ? 500 to 5000 nM

What about CC(=O)N1[C@H](C)CN(c2cccc(-c3c[nH]c4ncc(OCCOC(C)C)cc34)n2)C[C@@H]1C ? < 500 nM

What about Cc1cccc(-c2c[nH]c3ncc(Cl)cc23)c1 ? < 500 nM

What about CC(=O)N1CCCN(c2nccc(-c3c[nH]c4ncc(-c5cccnc5)cc34)n2)CC1 ? < 500 nM

====

Target: ROCK (Homo sapiens, UniProt Q13464)
Sequence (Q13464 whole entry): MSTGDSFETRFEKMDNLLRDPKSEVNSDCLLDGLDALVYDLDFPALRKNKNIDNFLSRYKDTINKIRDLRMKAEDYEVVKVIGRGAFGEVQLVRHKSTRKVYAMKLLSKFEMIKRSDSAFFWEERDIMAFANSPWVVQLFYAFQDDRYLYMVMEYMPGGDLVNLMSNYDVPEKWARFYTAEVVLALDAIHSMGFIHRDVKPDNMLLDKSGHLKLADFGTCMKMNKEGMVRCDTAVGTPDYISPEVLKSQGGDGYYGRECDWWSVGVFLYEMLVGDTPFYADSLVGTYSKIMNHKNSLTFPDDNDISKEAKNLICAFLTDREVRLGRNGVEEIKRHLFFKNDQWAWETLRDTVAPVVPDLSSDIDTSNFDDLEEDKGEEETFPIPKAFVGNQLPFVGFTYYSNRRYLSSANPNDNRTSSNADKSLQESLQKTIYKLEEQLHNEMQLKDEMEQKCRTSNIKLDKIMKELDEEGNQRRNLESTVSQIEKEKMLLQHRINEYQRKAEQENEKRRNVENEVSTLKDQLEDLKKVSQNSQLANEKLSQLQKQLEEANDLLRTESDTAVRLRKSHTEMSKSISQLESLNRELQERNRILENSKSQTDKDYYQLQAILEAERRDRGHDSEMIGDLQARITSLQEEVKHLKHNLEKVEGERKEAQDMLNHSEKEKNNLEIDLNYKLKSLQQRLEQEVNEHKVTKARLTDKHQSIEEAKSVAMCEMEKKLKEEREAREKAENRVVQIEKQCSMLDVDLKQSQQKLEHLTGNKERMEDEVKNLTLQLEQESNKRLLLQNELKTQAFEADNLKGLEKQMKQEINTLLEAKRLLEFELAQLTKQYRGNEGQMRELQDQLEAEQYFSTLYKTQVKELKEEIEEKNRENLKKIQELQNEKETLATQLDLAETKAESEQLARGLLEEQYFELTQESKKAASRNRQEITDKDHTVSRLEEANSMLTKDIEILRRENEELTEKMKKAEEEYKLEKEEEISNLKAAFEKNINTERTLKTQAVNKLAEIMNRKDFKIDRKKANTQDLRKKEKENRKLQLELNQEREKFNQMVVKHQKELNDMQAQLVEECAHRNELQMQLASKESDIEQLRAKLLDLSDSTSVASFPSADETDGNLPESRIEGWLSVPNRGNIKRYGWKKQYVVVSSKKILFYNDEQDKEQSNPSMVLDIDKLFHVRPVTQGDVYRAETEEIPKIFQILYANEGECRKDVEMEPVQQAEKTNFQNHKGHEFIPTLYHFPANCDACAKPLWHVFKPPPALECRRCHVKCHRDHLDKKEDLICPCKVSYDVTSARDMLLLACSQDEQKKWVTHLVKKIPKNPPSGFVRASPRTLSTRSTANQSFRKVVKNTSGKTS
Test: ROCK inhibition assay, standard radioactive enzyme assay ("33P")
Format: biochemical
MEASUREMENT LABEL: Ki

What value of Ki has been reported for the following compound? CS(=O)(=O)c1cccc(-c2c[nH]c3ncc(-c4ccccc4)cc23)c1 < 500 nM

What about Brc1cnc2[nH]c(-c3ccccc3)c(-c3ccccc3)c2c1 ? 500 to 5000 nM

What about Fc1cccc(CNc2cc(-c3c[nH]c4ncccc34)ncn2)c1 ? < 500 nM

What about c1ccc(CNc2nccc(-c3c[nH]c4ncc(-c5cccnc5)cc34)n2)cc1 ? 500 to 5000 nM

What about c1ccc(-c2cnc3[nH]cc(-c4ccccc4)c3c2)cc1 ? 500 to 5000 nM

Further cases:
What value of Ki has been reported for the following compound? c1cncc(CNc2nccc(-c3c[nH]c4ncccc34)n2)c1 < 500 nM

What about CN(C)C(=O)c1ccc(-c2c[nH]c3ncc(-c4ccccc4)cc23)cc1 ? 500 to 5000 nM

Cited source for all entries: patent US8501446B2
